Data provenance: the supplement of paper PMC12783771

B1: library; numbered along this chain (parent)
chain: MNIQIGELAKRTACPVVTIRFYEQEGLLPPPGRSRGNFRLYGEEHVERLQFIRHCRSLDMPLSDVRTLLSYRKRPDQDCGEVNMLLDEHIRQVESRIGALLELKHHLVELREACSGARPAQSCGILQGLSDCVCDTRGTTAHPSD

# Variants of: B1
# experiment-description: sfGFP reporter fluorescence (15 h) (µM FITC); higher = stronger transcriptional activation
# test-context: library round: Round 0; ligand: 30 µM Zn
In this scheme, each record receives a class according to its sfGFP reporter fluorescence; the ranges are class A (below 0.1), class B (0.1 to below 0.9), class C (0.9 or more)

Please review the entries below; each comes with its answer.
> print(dat)
   sequence.change  assigned.label
1             F21C         class A
2             C55Q         class A
3             V46T         class B
4             L85D         class A

Kindly state the category for this variant: H89P class A

Kindly state the category for this variant: Y22S class A

Kindly state the category for this variant: P143A class B

Kindly state the category for this variant: C123P class A

Kindly state the category for this variant: Y41L class A

Kindly state the category for this variant: M60L K104V G128M class C
